- Tested on: MALME-3M melanoma
- testName: NCI tumour cell line growth inhibition, 48 h
Please go through the items and note down their TGI.

Illustrative cases are given below, each with its answer.
molecule	TGI
N#Cc1c(-c2ccccc2)c(C#N)c(=O)n(C2OC(CO)C(O)C(O)C2O)c1S (centres undefined)	> 100 µM
CC(C)(C)c1ccc(O)c(CN(Cc2cc(C(C)(C)C)ccc2O)C2CCCCC2)c1	30.8 µM
NC(=O)C(Nc1ccc(Cl)cc1)c1cc2cc(Br)ccc2nc1Cl (centres undefined)	> 50 µM
CC1CC(C)C2=NOS3=C2C1=NO3 (centres undefined)	> 100 µM
O=S(=O)(Nc1ccc2ccccc2c1)c1ccc(-c2cnc(C3CC3)o2)cc1	24 µM
COCOCC[C@@H]1CC=CC(NC(=O)OCc2ccccc2)C1/C=C/C(=O)CCC1OCCO1 (some centres undefined)	> 100 µM

Could you tell me TGI for each of these molecules? They are listed below.
1. COc1cc(CC(C(=O)O)C(=O)O)c(OC)cc1CC(C(=O)O)C(=O)O
2. CN(C)CCCNC(=O)c1cc(NC(=O)c2cc(NC(=O)[C@@H]3C[C@H]3C(=O)Nc3cc(C(=O)Nc4cc(C(=O)NCCCN(C)C)n(C)c4)n(C)c3)cn2C)cn1C
3. O=C1C(Cl)=C(N2CCN(c3ccccn3)CC2)C(=O)c2ncccc21

1. > 100 µM
2. > 100 µM
3. 3.21 µM

###

- Tested on: MCF7 breast
- testName: NCI tumour cell line growth inhibition, 48 h
measuredParameter: TGI

compound	studySystem	TGI
O=C(CCOS(=O)(=O)CF)N1CCN(C(=O)CCOS(=O)(=O)CF)CC1	MCF7 breast	> 100 µM
C=CCn1cnc2c(=O)[nH]c(Nc3ccccc3)nc21	MCF7 breast	> 100 µM
COc1ccc2c(CCNS(=O)(=O)c3ccccc3)c(C(C)=O)[nH]c2c1	MCF7 breast	> 100 µM
Cc1cc2c(cc1C)C(=O)/C(=N/Nc1ccc(F)cc1)CCO2	MCF7 breast	> 100 µM
N#Cc1c(-c2ccccc2)c(C#N)c(=O)n(C2OC(CO)C(O)C(O)C2O)c1S (stereo not given)	MCF7 breast	> 100 µM
COc1ccc(/C=C2\CC(C)CC3C2=NN(c2ccccc2)C3c2ccc(OC)c(OC)c2)cc1OC (stereo not given)	MCF7 breast	42.6 µM

Could you tell me TGI for each of these compounds? They are listed below.
1. CC1CC(C)C2=NOS3=C2C1=NO3 (stereo not given)
2. CC(O)CN1c2ccccc2Sc2ccc(Cl)cc21 (stereo not given)
3. O=C(Nc1cccc(Cl)c1)c1cc(N=Nc2ccc([N+](=O)[O-])cc2Cl)ccc1O
4. CC[C@]12C=CCN3CC[C@@]4(c5ccc(OC)cc5N(C)[C@H]4[C@@](O)(C(=O)OC)[C@@H]1OC(=O)CCC(=O)N[C@H](Cc1c[nH]c4ccccc14)C(=O)OC)[C@@H]32

["> 100 µM", "> 10 µM", "5.79 µM", "16.1 µM"]

###

- Tested on: CAKI-1 renal
- testName: NCI tumour cell line growth inhibition, 48 h
Please go through the items and note down their GI50.

recordSmiles	GI50
CO[C@@H]1[C@H]2[C@@H](C)c3ccoc3C[C@@H]2[C@@]2(C)CC[C@H](OC(=O)c3ccccc3)[C@](C)(C(=O)O)[C@]2(O)[C@@H]1OC(=O)c1ccccc1	7.46 µM
COc1cc(-c2ccc(NC(=O)NC3CC3)c(OC)c2)ccc1NC(=O)NC1CC1	6.2 µM

Please find the next molecule below.
For the molecule Cc1nnc(-c2ccc(C)c(-c3ccc(C(=O)NCc4ccc(Cl)cc4)cc3)c2)o1 , report GI50. 11.8 µM
